# tested_system: UniProt:Q15561
# Sequence (Q15561 whole entry, species assumed): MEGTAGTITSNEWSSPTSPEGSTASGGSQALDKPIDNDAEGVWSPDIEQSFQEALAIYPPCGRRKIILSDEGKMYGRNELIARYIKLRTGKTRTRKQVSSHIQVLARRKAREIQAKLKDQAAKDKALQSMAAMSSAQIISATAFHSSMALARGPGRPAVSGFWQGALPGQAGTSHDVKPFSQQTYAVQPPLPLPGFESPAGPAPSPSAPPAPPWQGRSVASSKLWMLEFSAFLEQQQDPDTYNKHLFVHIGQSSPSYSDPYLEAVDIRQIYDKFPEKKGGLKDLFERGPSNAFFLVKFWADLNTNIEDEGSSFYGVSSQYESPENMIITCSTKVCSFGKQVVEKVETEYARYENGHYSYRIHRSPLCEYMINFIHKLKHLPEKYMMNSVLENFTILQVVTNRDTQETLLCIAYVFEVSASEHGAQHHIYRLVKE
# method_summary: Thermal shift assay TEAD4
# Format: binding

>  <molecule>
CNC(=O)[C@@H]1CC1c1cc(-c2ccc(C(F)(F)F)cc2)cc2c1cnn2C (stereo partly shown) [Example 40]

>  <tested_system>
UniProt:Q15561

>  <TEAD4 ΔTm [°C]>
0.7

$$$$
>  <molecule>
CNS(=O)(=O)[C@@H]1C[C@H]1c1cc(Oc2ccc(C(F)(F)F)cc2)cc2c1NCCC2 (racemic)

>  <tested_system>
UniProt:Q15561

>  <TEAD4 ΔTm [°C]>
6.7

$$$$
>  <molecule>
CNS(=O)(=O)CCc1cc(-c2ccc(C(F)(F)F)cc2)cc2c1cnn2C

>  <tested_system>
UniProt:Q15561

>  <TEAD4 ΔTm [°C]>
3.8

$$$$
>  <molecule>
Cn1cc2cc(Oc3ccc(C(F)(F)F)cc3)cc(C3C[C@H]3C(=O)N3CC4CC3[C@H](O)[C@H]4O)c2n1 (single isomer, unassigned)

>  <tested_system>
UniProt:Q15561

>  <TEAD4 ΔTm [°C]>
8.5

$$$$
>  <molecule>
CC(NC(=O)[C@@H]1CC1c1cc(Oc2ccc(C(F)(F)F)cc2)cc2cn(C)nc12)c1ccccn1 (mixture of isomers)

>  <tested_system>
UniProt:Q15561

>  <TEAD4 ΔTm [°C]>
14

$$$$
>  <molecule>
Cn1cc2cc(Oc3ccc(C(F)(F)F)cc3)cc([C@H]3C[C@@H]3C(=O)N[C@@H](CO)c3ccccn3)c2n1 (single isomer, unassigned) [Example 59a]

>  <tested_system>
UniProt:Q15561

>  <TEAD4 ΔTm [°C]>
7.9

$$$$
>  <molecule>
CC(C)NC(=O)[C@@H]1CC1c1cc(Oc2ccc(C(F)(F)F)cc2)cc2cn(C)nc12 (mixture of isomers)

>  <tested_system>
UniProt:Q15561

>  <TEAD4 ΔTm [°C]>
8.6

$$$$
>  <molecule>
CNC(=O)[C@@H]1C[C@H]1c1cc(-c2ccc(C(F)(F)F)cc2)cc2c1cnn2C(F)F (racemic)

>  <tested_system>
UniProt:Q15561

>  <TEAD4 ΔTm [°C]>
1.3

$$$$
>  <molecule>
CNS(=O)(=O)CCCc1cc(-c2ccc(C(F)(F)F)cc2)cc2cn(C)nc12

>  <tested_system>
UniProt:Q15561

>  <TEAD4 ΔTm [°C]>
5.7

$$$$
>  <molecule>
Cn1cc2cc(Oc3ccc(C(F)(F)F)cc3)cc(C3C[C@H]3C(=O)N3CCOC4(COC4)C3)c2n1 (single isomer, unassigned)

>  <tested_system>
UniProt:Q15561

>  <TEAD4 ΔTm [°C]>
7.1

$$$$
>  <molecule>
Cn1cc2cc(Oc3ccc(C(F)(F)F)cc3)cc([C@@H]3C[C@H]3C(=O)N=S(C)(C)=O)c2n1 (single isomer, unassigned)

>  <tested_system>
UniProt:Q15561

>  <TEAD4 ΔTm [°C]>
5.8

$$$$
>  <molecule>
Cn1cc2cc(Oc3ccc(C(F)(F)F)cc3)cc([C@@H]3C[C@H]3C(=O)N3CC(C#N)C3)c2n1 (single isomer, unassigned)

>  <tested_system>
UniProt:Q15561

>  <TEAD4 ΔTm [°C]>
8.6

$$$$
>  <molecule>
Cn1cc2cc(Oc3ccc(C(F)(F)F)cc3)cc([C@H]3C[C@@H]3C(=O)N3CC4CC3CC4O)c2n1 (single isomer, unassigned) [Example 103b]

>  <tested_system>
UniProt:Q15561

>  <TEAD4 ΔTm [°C]>
11.8

$$$$
